# target.desc: human 5-HT2C receptor (Homo sapiens, UniProt P28335)
# Construct: expressed in transfected cells; host or cells: CHO cells
# protocol.notes: Stimulation of [3H] Inositol Monophosphate Production by 5HT2C Agonists
# Type: cell-based
Structures can show the parent of a compound that is named as a salt.
measured.endpoint: EC50 (nM)

molecule	measured.endpoint	measured.value
O=C1Nc2ccc(Cl)cc2N2CCNC[C@H]12	EC50	30
Clc1cc2c(cc1Cl)N1CCNCC1CN2 (stereo not shown) [Example 4, dihydrochloride]	EC50	7.32
Clc1cc2c(cc1Cl)N1CCNC[C@H]1CN2 (single isomer, unassigned) [Example 6, dihydrochloride]	EC50	23.2
Clc1cc2c(cc1Cl)N1CCNC[C@@H]1CN2 (single isomer, unassigned) [Example 5, dihydrochloride]	EC50	33.8

====

# target.desc: human 5-hydroxy-tryptamine2C (h5HT2C) receptor (Homo sapiens, UniProt P28335)
# Construct: expressed in transfected cells; host or cells: CHO (Chinese Hamster Ovary) cells; membranes
# protocol.notes: 5HT2C Receptor Binding Test Procedure ([125I] DOI)
# measurement.setup: reference compounds; [125I] DOI binding, CHO cell membranes; read-out: Ki value and 95% confidence interval
pKi: −log10 of the molar value.

molecule	target.desc	pKi
CSc1ccc2c(c1)C(N1CCN(C)CC1)Cc1ccccc1S2 (stereo not shown) [Methiothepin, reference compound]	human 5-hydroxy-tryptamine2C (h5HT2C) receptor (Homo sapiens, UniProt P28335)	8.34

====

# target.desc: UniProt P28335
# Sequence (P28335 33-458): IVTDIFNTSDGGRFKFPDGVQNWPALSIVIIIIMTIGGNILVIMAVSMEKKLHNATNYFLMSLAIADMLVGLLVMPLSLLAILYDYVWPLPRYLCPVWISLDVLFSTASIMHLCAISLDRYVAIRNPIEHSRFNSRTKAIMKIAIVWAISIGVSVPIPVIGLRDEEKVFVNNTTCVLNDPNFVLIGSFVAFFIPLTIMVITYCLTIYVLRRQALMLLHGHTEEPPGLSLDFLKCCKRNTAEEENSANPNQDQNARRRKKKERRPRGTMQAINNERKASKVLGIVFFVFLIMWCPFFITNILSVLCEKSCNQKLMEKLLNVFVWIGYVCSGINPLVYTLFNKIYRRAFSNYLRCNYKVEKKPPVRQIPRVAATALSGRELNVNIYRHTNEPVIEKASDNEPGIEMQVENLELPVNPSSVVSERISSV
measured.endpoint: Kd

compound	measured.value
COc1cc(CC(C)N)c(OC)cc1I (stereo not shown) [[^125I] DOI, reference compound]	0.4 nM
